- Tested on: Leishmania promastigotes
- test_details: Testing of agents against Leishmania species in parasite culture medium (anti-leishmanial activity)
- Assay type: cell-based
- run_parameters: Leishmania, read-out: concentrations effective at the IC50 level
quantity_name: pIC50
Lab note — pIC50 values are minus log10 of concentrations in M.

Q: Give its pIC50 value. Item: O=[N+]([O-])c1cc(C(F)(F)F)cc([N+](=O)[O-])c1Cl [compound 1, 4-chloro-3,5 dinitrobenzotrifluoride]
Result: 6.05
